B1: LINE1-full (parent)
chain: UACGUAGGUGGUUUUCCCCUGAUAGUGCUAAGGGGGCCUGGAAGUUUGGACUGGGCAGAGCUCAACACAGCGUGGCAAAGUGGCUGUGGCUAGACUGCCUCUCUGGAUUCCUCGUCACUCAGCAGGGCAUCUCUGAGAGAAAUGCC

Variants of: B1
Test Details: self-cleavage, relative activity (ratio to wild type); higher = more cleavage; in vitro, sequencing; the parent is a self-cleaving ribozyme
Given measured self-cleavage, output y if it is greater than or equal to 1 and n if not.

API: above_or_equal(metric=self-cleavage, cutoff=1) for item "UACGUAGGUGGUUUUCCCCUGAUAGUGCUAAGGGGGCCUGGAAGUUUGGACUGGGCAGAGCUCGACACGGCGUGGCAAAGUGGCUGUGGCUAGACUGCCUCUCUGGAUUCCUCGUCACUCAGCAGGGCAUCUCUGAGAGAAAUGCC"
n

API: above_or_equal(metric=self-cleavage, cutoff=1) for item "UACGUAGGUGGUUUUCCCCUGAUAGUGCUAAGGGGGCCUGGAAGUUCGGACUGGGCAGAGCUCAACACCGCGUGGCAAAGUGGCUGUGGCUAGACUGCCUCUCUGGAUUCCUCGUCACUCAGCAGGGCAUCUCUGAGAGAAAUGCC"
n

API: above_or_equal(metric=self-cleavage, cutoff=1) for item "UCCGUAGGUGGUUUUCCCCUGAUAGUGCUAAGGGGGCCUGGAAGUUUGGACUGGGCAGAGCUCAACACAGCGUGGCAAAGUGGCUGUGGCUAGACUGCCUCUCUGGAUUCCUCGUCACUCAGCAGGGCACCUCUGAGAGAAAUGCC"
y

API: above_or_equal(metric=self-cleavage, cutoff=1) for item "UACGUAGGUGGUUUCCCCCUGAUAGUGCUAAGGGGGCCUGGAAGUUUGGACUGGGCAGAGCUCAACACAGCGUGGCAAAGUGGCUGUGGCUAGACUGCCUCUCUGGAUUCCUCGUCCCUCAGCAGGGCAUCUCUGAGAGAAAUGCC"
y

API: above_or_equal(metric=self-cleavage, cutoff=1) for item "UAUGUAGGUGGUUUUCCCCUGGUAGUGCUAAGGGGGCCUGGAAGUUUGGACUGGGCAGAGCUCAACACAGCGUGGCAAAGUGGCUGUGGCUAGACUGCCUCUCUGGAUUCCUCGUCACUCAGCAGGGCAUCUCUGAGAGAAAUGCC"
n

***
API: above_or_equal(metric=self-cleavage, cutoff=1) for item "UACGUAGGUGGUUUUCCCCUGAUGGUGCUAAGGGGGCCUGGAAGUUUGGACUGGGCAGAGCUCAACACAGCGUGGCAAAGUGGCUGUGGCUAGACUGCCUCUCUGGAUUCCUCGUCACUCAGCAGGGCAUCCCUGAGAGAAAUGCC"
y

API: above_or_equal(metric=self-cleavage, cutoff=1) for item "UACGUAGGUGGUUUUCCCCUGAUAGUGCUAAGGGGGCCAGGAAGUUUGGACUGGGCAGAGCUCAACACAGCGUAGCAAAGUGGCUGUGGCUAGACUGCCUCUCUGGAUUCCUCGUCACUCAGCAGGGCAUCUCUGAGAGAAAUGCC"
n

API: above_or_equal(metric=self-cleavage, cutoff=1) for item "UACGUAGGUGGUUCUCCCCUGAUAGUGCUAAGGGGGCCUGGAAGUUUGGACUGGGUAGAGCUCAACACAGCGUGGCAAAGUGGCUGUGGCUAGACUGCCUCUCUGGAUUCCUCGUCACUCAGCAGGGCAUCUCUGAGAGAAAUGCC"
n

API: above_or_equal(metric=self-cleavage, cutoff=1) for item "UACGUAGGUGGUUUUCCCCUGAUAGUGCUAAGGAGGCCUGGAAGUUUGGACUGGGCAGAGCUCAACACAGCGUGGCAAUGUGGCUGUGGCUAGACUGCCUCUCUGGAUUCCUCGUCACUCAGCAGGGCAUCUCUGAGAGAAAUGCC"
y

API: above_or_equal(metric=self-cleavage, cutoff=1) for item "UACGUAGGUGGUUUUCCCCUGAUGGUGCUAAGGGGGCCUGGAAGUUUGGACUGGGCAGAGCUCAACACAGCGUGGCAAAGUGGCUGUGGCUAGACUGCCUCUCUGGAUUCAUCGUCACUCAGCAGGGCAUCUCUGAGAGAAAUGCC"
y

API: above_or_equal(metric=self-cleavage, cutoff=1) for item "UACGUAGGUGGUUUUCCCCUGAUAGUGCUAAGGGGGCCUGGAAGUAUGGACUGGGCAGAGCUCAACACAGCGUGGCAAAGUGGCUGAGGCUAGACUGCCUCUCUGGAUUCCUCGUCACUCAGCAGGGCAUCUCUGAGAGAAAUGCC"
n

API: above_or_equal(metric=self-cleavage, cutoff=1) for item "UACGUAGGUGGUUUUCCCCUGAUAGUGCUAAGGGGGCCAGGAAGUUUGGACUGGGCAGAGCUCAGCACAGCGUGGCAAAGUGGCUGUGGCUAGACUGCCUCUCUGGAUUCCUCGUCACUCAGCAGGGCAUCUCUGAGAGAAAUGCC"
n

API: above_or_equal(metric=self-cleavage, cutoff=1) for item "UACGUAGGUGGUUUUCCCCUGAUAGUGCUAAGGGGGCCCGGAAGUUUGGACUGGGCAGAGCUCAACACAGCGUGGCAAAGUGGCUAUGGCUAGACUGCCUCUCUGGAUUCCUCGUCACUCAGCAGGGCAUCUCUGAGAGAAAUGCC"
n
